target: T1, cynomolgus EpCAM protein (cynomolgus monkey); assay: colorimetric ELISA
T1 construct: biotinylated in the Octet assays; also called cy EpCAM; cynomolgus monkey EpCAM
T1 sequence (Q1WER1 24-265): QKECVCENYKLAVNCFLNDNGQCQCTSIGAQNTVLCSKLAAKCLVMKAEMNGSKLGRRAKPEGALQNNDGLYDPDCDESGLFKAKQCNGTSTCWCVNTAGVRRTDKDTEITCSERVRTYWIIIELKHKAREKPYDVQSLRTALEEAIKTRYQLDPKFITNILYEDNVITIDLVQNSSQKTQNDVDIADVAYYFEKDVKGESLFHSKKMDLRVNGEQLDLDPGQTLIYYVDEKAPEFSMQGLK
Task for the reader: assign each of the following binders its reported Cynomolgus EpCAM/Control.
Answers are plain numbers, in ratio.

Worked examples follow.
binder: Llama anti-EpCAM single domain antibody EPL82 (VHH, E. coli periplasmic extract) VHH: QVQLQESGGGLVQAGGSLKLSCTASGTILSTMAWYRQAPGKQRELVATISRGGTTNYSDSVKGRFAISRDSTKNTVYLQMNSLKPEDTAVYYCNTPLTDYGMGYNWGQGTQVTVSS
reported-property: Cynomolgus EpCAM/Control
measured: 5

binder: Llama anti-EpCAM single domain antibody EPL145 (VHH, E. coli periplasmic extract) VHH: QVQLQESGGGLVQAGGSLRLSCAASGFIFRAASMGWFRQSPGNERELVATVSSGGFTNYADSVKGRFTISRDNAKNTVYLQMNSLKPEDTAVYFCGATFVRSDGHHTIYGQGTQVTVSS
reported-property: Cynomolgus EpCAM/Control
measured: 2

binder: Llama anti-EpCAM single domain antibody EPL10 (VHH, E. coli periplasmic extract) VHH: QVQLQESGGGLVQAGGSLRLSCAASGSVFRANVMGWYRQAPGKQHELVARIDPGGTTTYADPVKGRFTISRDNAKKTVYLQMNSLKPDDTAVYYCNAIILLSGGPKDYWGQGTQVTVSS
reported-property: Cynomolgus EpCAM/Control
measured: 9

Next item in the queue.
Inquiry: Return reported Cynomolgus EpCAM/Control; argument: Llama anti-EpCAM single domain antibody EPL164 (VHH, E. coli periplasmic extract) VHH: QVQLQESGGGLVQAGGSLRLSCAASGFIFRAASMDWYRQSPGTQPELVATISSTGFTNYANSVKGRFTISRDNAKNTVYLQMNSLKPEDTAVYFCGATFLRSDGQHSIYGQGTQVTVSS
Reply text: 34
